# PROTOCOL_NOTES: in vitro
# SETUP_CONDITIONS: rat, gh3-tre-luc cells, AC50 (uM) modified / 1000, Tox21_110001=Tox21_201354; viability, 1 nM T3 present, 24 h
PROPERTY: CC50 at 24 h

Task: For C=C(C)C#N , write its CC50 at 24 h.
Output: > 100 µM

----------
# PROTOCOL_NOTES: in vitro
# SETUP_CONDITIONS: rat, gh3-tre-luc cells, AC50 (uM) modified / 1000, Tox21_110001=Tox21_200689; viability, 1 nM T3 present, 24 h
PROPERTY: CC50 at 24 h

Task: Indicate its recorded CC50 at 24 h; the compound in question is C[C@]12CC[C@H]3[C@@H](CCC4=CC(=O)CC[C@@]43C)[C@@H]1CC[C@@H]2O
Output: > 90 µM

----------
# PROTOCOL_NOTES: in vitro
# SETUP_CONDITIONS: rat, gh3-tre-luc cells, AC50 (uM) modified / 1000, Tox21_110001=Tox21_202316; viability, 1 nM T3 present, 24 h
PROPERTY: CC50 at 24 h

Task: State its CC50 at 24 h for this compound: COP(=S)(OC)SCN1C(=O)c2ccccc2C1=O
Output: > 90 µM

----------
# PROTOCOL_NOTES: in vitro
# SETUP_CONDITIONS: rat, gh3-tre-luc cells, AC50 (uM) modified / 1000
Structures can show the parent of a compound that is named as a salt.
PROPERTY: CC50 at 24 h

Task: Provide one value: measured CC50 at 24 h of C=CC1CO1 (centres unmarked)
Output: > 100 µM

Task: Output measured CC50 at 24 h for this item: CCOC(=O)OC(C)OC(=O)[C@@H]1N2C(=O)[C@@H](NC(=O)[C@H](N)c3ccccc3)[C@H]2SC1(C)C (some centres unmarked) [Bacampicillin hydrochloride]
Output: > 20 µM

Task: Report CC50 at 24 h for Cc1c(C(=O)NCCO)[n+]([O-])c2ccccc2[n+]1[O-]
Output: > 50 µM

Task: Look up and report measured CC50 at 24 h for this entry: NC(=O)NO [Hydroxyurea]
Output: > 90 µM

Task: For the compound C[C@]12C=CC(=O)N[C@@H]1CC[C@@H]1[C@@H]2CC[C@]2(C)[C@@H](C(=O)Nc3cc(C(F)(F)F)ccc3C(F)(F)F)CC[C@@H]12 [Dutasteride] , give its reported CC50 at 24 h.
Output: > 50 µM

Task: Read off the recorded CC50 at 24 h for NC[C@H]1O[C@H](O[C@H]2[C@H](O[C@@H]3O[C@H](CO)[C@@H](O)[C@H]3O)[C@@H](O)[C@H](N)C[C@@H]2N)[C@H](N)[C@@H](O)[C@@H]1O [Ribostamycin sulfate]
Output: > 20 µM

Task: Read off the recorded CC50 at 24 h for O=CN1CCOCC1
Output: > 90 µM

Task: Supply CC50 at 24 h value. Item: Oc1ccccc1Cl
Output: > 90 µM

Task: In one line, give reported CC50 at 24 h of the entry CCOC(=O)[N-]c1cn(N2CCOCC2)n[o+]1 .
Output: > 20 µM

Task: Give CC50 at 24 h for Nc1nc2ccccc2[nH]1
Output: > 90 µM

Task: Supply CC50 at 24 h value. Item: CC(C)(C)C(=O)C(Oc1ccc(Cl)cc1)n1cncn1 (centres unmarked)
Output: > 90 µM

Task: # return recorded CC50 at 24 h for input CC(CCO)CC(C)(C)C (centres unmarked)
Output: > 90 µM

Task: Please give measured CC50 at 24 h of the following entry: CCC(CO)CO
Output: > 90 µM

Task: Quickly give me recorded CC50 at 24 h for O=C(O)c1ccc[n+]([O-])c1 [Nicotinic acid 1-oxide]
Output: > 50 µM

Task: Specify measured CC50 at 24 h for CC(C)NC[C@@H](O)COc1cccc2ccccc12 .
Output: 27.7 µM

Task: Tell me CC50 at 24 h reported for CC(=O)CC(C)C
Output: > 90 µM

Task: // fetch CC50 at 24 h given entry CCCCCCCC/C=C/CCCCCCCC(=O)OCCO [Polyoxyethylene monoleate]
Output: > 100 µM

Task: Determine from records and report CC50 at 24 h for OCCC(F)(F)C(F)(F)C(F)(F)C(F)(F)C(F)(F)C(F)(F)F
Output: > 90 µM

Task: Tell us which CC50 at 24 h value is on record for CCN(CC)c1c([N+](=O)[O-])cc(C(F)(F)F)c(N)c1[N+](=O)[O-]
Output: 85.3 µM

Task: Respond only with CC50 at 24 h recorded for CCCCc1ccc2[nH]c(NC(=O)OC)nc2c1
Output: 0.0667 µM

Attribution: paper PMC6792352
